For each of the compounds below, state its TGI.
Test system: SK-MEL-2 melanoma
Test: NCI tumour cell line growth inhibition, 48 h

Solved cases (2 shown):
COMPOUND	STUDY SYSTEM	TGI
CCCCCC(=O)Nc1n[nH]nc1C#N	SK-MEL-2 melanoma	> 100 µM
O=C(Nc1ccc2[nH]c3ccccc3c2c1)c1ccccc1Cl	SK-MEL-2 melanoma	74.8 µM

I would be grateful if you could provide TGI for each of the following entries.
1. O=C(CC1(O)C(=O)Nc2c(Cl)cc(Cl)cc21)c1ccc(Br)cc1 (stereo unspecified)
2. Cc1ccc(N=C2SC(=S)N(CCC[N+](C)(C)C)C2=Nc2ccc(C)cc2)cc1
3. Cc1cn(CCCC2=NCCCN2)c(=O)[nH]c1=O
4. CC1CC/C(=C\c2ccc(F)cc2)C2=C1C(c1ccc(F)cc1)n1c(s/c(=C/c3cccc(Br)c3)c1=O)=N2 (stereo unspecified)
5. O=C1CC[C@H](NC(=O)Cc2ccccc2)C(=O)N1

> 57.8 µM
35.9 µM
> 100 µM
> 100 µM
> 1250 µM
